// pKd lookup, one value per entry
# assayed.system: T1, human GFRAL (analyte in Biacore assays) (human, UniProt Q6UXV0 19-351, limits assumed)
# T1 construct: injected in solution over captured antibody; also called hGFRAL
# T1 sequence: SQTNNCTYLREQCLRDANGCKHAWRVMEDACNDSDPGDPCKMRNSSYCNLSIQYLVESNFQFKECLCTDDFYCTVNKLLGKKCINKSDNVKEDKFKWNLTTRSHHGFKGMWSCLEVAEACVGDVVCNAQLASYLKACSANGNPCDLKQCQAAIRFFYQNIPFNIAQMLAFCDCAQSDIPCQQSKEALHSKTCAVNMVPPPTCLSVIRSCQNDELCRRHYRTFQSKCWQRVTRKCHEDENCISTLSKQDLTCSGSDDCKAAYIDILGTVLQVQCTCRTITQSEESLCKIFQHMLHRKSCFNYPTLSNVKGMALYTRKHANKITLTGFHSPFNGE
# experiment.notes: Biacore SPR, antibody captured, GFRAL injected
// pKd is dimensionless: -log10 of concentration (M)

A selection of reference data follows.
binder	pKd
antibody designated 22N5 (antibody, V domains shown, mouse hybridoma monoclonal) VH: QNQLVQSGPELKKPGEIVKISCKTSGYTFTDYSMHWVKKTPGKGFKWMGWINTETGEPTYADDFKGRFAFSLETSANTAHLQITNLKNEDTATYFCVKGTLNYWGQGTTLTVSS VL: DIKMTQSPSSMYASLGERVTITCKASQDIKSYLNWFQQKPGKSPKTLIYRTKRLVDGVPSRFSGSGSGQDYSLTVSSLEYDDVGIYYCLQYVEFPLTFGDGTKLELK	9.68
antibody designated 24G2 (antibody, V domains shown, mouse hybridoma monoclonal) VH: QVQLQQSGAELLKPGASVKLSCKASGYTFTTYWMHWVKQRPGQGLEWIGMIHPNSGSSNYNEKFKNKATLTVDKSSSTAYMQLSSLTSEDSAVYFCARSDYGFIPYFDYWGQGTTLTVSS VL: DILLTQSPAILSVSPGERVSFSCRASQSIGTSIHWYQQRTNGSPRLLIKYASESISGIPSRFSGSGSGTDFTLIINSVESEDIADYYCQQSNSWPTFTFGAGTKLELK	8.85
antibody designated 6N16 (antibody, V domains shown, mouse hybridoma monoclonal) VH: QVQLQQSGSELVKPGTSMKLSCKASGYTFTSYNINWVRLRPEQGLEWIGWIFPGDDSIKYNENFRGKATLTTDKSSSTAYMHLSRLTSDDSAVYFCARSGIFYGNNFAYWGQGTLVTVSA VL: DVVMTQAPLILSVTIGQPASISCKSSQSLLDGDGETYLSWLLQRPGQSPKRLIYLVSKLDSGVPDRFTGSGSGTDFTLKISRVEAEDLGVYYCCQSTHFPLTFGAGTKLELK	9.80

Please examine the following record next.
Data request, read-out pKd, for antibody designated 19K19 (antibody, V domains shown, mouse hybridoma monoclonal) VH: QVQLQQSGPDLVKPGASVKISCKASGYAFTSYWMNWVKQRPGKGLEWIGRIYPGDGDTNYNGKFKGKATLTADKSSSTAYMQLSSLTSEDSAVYFCARAYLLRLRRTGYYAMDYWGQGTSVTVSS VL: DVVLTQTPLSLPVNIGDQASISCKSTKSLLNSDEFTYLDWYLQKPGQSPQLLIYLVSNRFSGVPDRFSGSGSGTDFTLKISRVEAEDLGVYYCFQSNYLPYTFGGGTKLEIK
9.68
